Source of measurements: PubChem BioAssay AID2060601

Tested on: 874868-142-R-J2-PDC complex spheroids, growth % test/control;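 note: spheroids exposed to the compounds for 7 days; 100% = DMSO vehicle control viability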
Experiment: Anticancer human tumor 874868-142-R-J2-PDC patient-derived head and neck squamous carcinoma cell line growth inhibition [CLK]; active = viability on the fitted dose curve at most 10% of control; inactive = the rest
Settings: second compound 0.316 µM; first compound 0.0316 µM
Classes to choose from: class 1 for active, class 0 for inactive

I would be grateful if you could indicate the recorded call for Nc1ccn(C2OC(CO)C(O)C2(F)F)c(=O)n1 (stereo not drawn) + CNC(=O)c1ccc(Nc2nc(OC3CCCC3)c3c(-c4ccc5nc(C)oc5c4)c[nH]c3n2)c(OC)c1 .
class 0

Repeat with CC1COCCN1c1cc(C2(S(C)(=N)=O)CC2)nc(-c2ccnc3[nH]ccc23)n1 (stereo not drawn) + CN1CCN(c2cc(C(=O)Nc3cc4cc(-c5cnn(C)c5)ccc4cn3)ccn2)CC1
class 0

Repeat with O=c1[nH]cc(F)c(=O)[nH]1 + CN1CCN(c2cc(C(=O)Nc3cc4cc(-c5cnn(C)c5)ccc4cn3)ccn2)CC1
class 0

Repeat with CCc1c2c(nc3ccc(O)cc13)-c1cc3c(c(=O)n1C2)COC(=O)[C@]3(O)CC + CN1CCN(c2cc(C(=O)Nc3cc4cc(-c5cnn(C)c5)ccc4cn3)ccn2)CC1
class 1

Repeat with O=C(c1cc(Cc2n[nH]c(=O)c3ccccc23)ccc1F)N1CCN(C(=O)C2CC2)CC1 + CN1CCN(c2cc(C(=O)Nc3cc4cc(-c5cnn(C)c5)ccc4cn3)ccn2)CC1
class 0

Repeat with C#Cc1c(F)ccc2cc(O)cc(-c3ncc4c(N5CC6CCC(C5)N6)nc(OCC56CCCN5CC(F)C6)nc4c3F)c12 (stereo not drawn) + CN1CCN(c2cc(C(=O)Nc3cc4cc(-c5cnn(C)c5)ccc4cn3)ccn2)CC1
class 0

Repeat with COc1cccc2c1C(=O)c1c(O)c3c(c(O)c1C2=O)CC(O)(C(=O)CO)CC3OC1CC(N)C(O)C(C)O1 (stereo not drawn) + CN1CCN(c2cc(C(=O)Nc3cc4cc(-c5cnn(C)c5)ccc4cn3)ccn2)CC1
class 0
